Test: in vivo
Details: mouse, iv, 1 mg/kg, AUC0-∞, mice, I.V. 1 mg/kg, Liver
Experimental readout: AUC(0-inf) (µg·h/mL)
Express it in µg·h/mL; write the number only.

Qu. I am curious: what AUC(0-inf) value has been reported for CC[C@H]1CN2CCc3cc(OC)c(OC)cc3[C@@H]2C[C@@H]1C[C@H]1NCCc2cc(OC)c(OC)cc21 [Emetine] ?
Ans. 139

* * *

Test: in vivo
Details: mouse, iv, 1 mg/kg, AUC0-t, mice, I.V. 1 mg/kg, Lung
Experimental readout: AUC(0-t) (µg·h/mL)
A number alone suffices; assume µg·h/mL.

Qu. Which AUC(0-t) value belongs to CC[C@H]1CN2CCc3cc(OC)c(OC)cc3[C@@H]2C[C@@H]1C[C@H]1NCCc2cc(OC)c(OC)cc21 ?
Ans. 35.4
